System: Digitaria sanguinalis
test_name: Post-emergence foliage spray, pot culture, fresh weight inhibition (Tables 151-206; 20 days)
Assay type: in vivo
study_conditions: Digitaria sanguinalis, 480 h; A alone 75 g a.i./ha; 20 days after treatment; read-out: Control effect (%) of A applied alone in corresponding dose
Known pest or weed control at 75 g/ha of a selection of compounds
measurement_kind: pest or weed control at 75 g/ha (%)

| compound | measurement_kind | unit_symbol | number |
| --- | --- | --- | --- |
| CC(C)=NOC(=O)[C@@H](C)Oc1nc(F)c(Cl)c(N)c1Cl [Compound A130] | pest or weed control at 75 g/ha | % | 16.7 |
| C[C@@H](Oc1nc(F)c(Cl)c(N)c1Cl)C(=O)OCC1CCCO1 (stereo partly shown) [Compound A2] | pest or weed control at 75 g/ha | % | 19.4 |
| Cc1c(F)c(F)c(COC(=O)[C@@H](C)Oc2nc(F)c(Cl)c(N)c2Cl)c(F)c1F [Compound A213] | pest or weed control at 75 g/ha | % | 14.9 |
| CCCCOCCOC(=O)[C@@H](C)Oc1nc(F)c(Cl)c(N)c1Cl [Compound A214] | pest or weed control at 75 g/ha | % | 21.9 |

###

Test system: Acalypha australis
test_name: Post-emergence foliage spray, pot culture, fresh weight inhibition (Tables 1-48, 51-98, 101-148; 24 days)
Type: in vivo
study_conditions: B 7.5 g a.i./ha
Known Control effect (%) of B applied alone in corresponding dose of a selection of molecules
measurement_kind: Control effect (%) of B applied alone in corresponding dose

| molecule | result |
| --- | --- |
| O=C(O)COC(=O)c1cc(Oc2ccc(C(F)(F)F)cc2Cl)ccc1[N+](=O)[O-] [fluoroglycofen] | 71.4% |
| CCOc1cc(Oc2ccc(C(F)(F)F)cc2Cl)ccc1[N+](=O)[O-] [oxyfluorfen] | 4.6% |
| CCOC(=O)C(C)OC(=O)c1cc(Oc2ccc(C(F)(F)F)cc2Cl)ccc1[N+](=O)[O-] (stereo not shown) [lactofen] | 2.7% |
| C#CCN1C(=O)COc2cc(F)c(N3C(=O)C4=C(CCCC4)C3=O)cc21 [flumioxazin] | 6.9% |

###

Known pest or weed control at 75 g/ha of a selection of molecules
Tested on: Digitaria sanguinalis
test_name: Post-emergence foliage spray, pot culture, fresh weight inhibition (Tables 151-206; 20 days)
Type: in vivo
study_conditions: Digitaria sanguinalis, 480 h; A 75 g a.i./ha; 20 days; read-out: Control effect (%) of A applied alone in corresponding dose

| smiles_repr | unit_symbol | pest or weed control at 75 g/ha |
| --- | --- | --- |
| CCCCCCCCCCCOC(=O)[C@@H](C)Oc1nc(F)c(Cl)c(N)c1Cl | % | 23.4 |
| C[C@@H](Oc1nc(F)c(Cl)c(N)c1Cl)C(=O)OCc1ccccc1 | % | 27.7 |
| COC(=O)[C@@H](C)Oc1nc(F)c(Cl)c(N)c1Cl | % | 23.4 |
| C[C@@H](Oc1nc(F)c(Cl)c(N)c1Cl)C(=O)SCc1ccco1 | % | 31.3 |
| CC[C@@H](Oc1nc(F)c(Cl)c(N)c1Cl)C(=O)OC | % | 21.2 |
| C[C@@H](Oc1nc(F)c(Cl)c(N)c1Cl)C(=O)OCc1ccco1 | % | 16.6 |
| COC(=O)[C@@H](C)Oc1ncc(Cl)c(N)c1Cl | % | 38.2 |
| COC(=O)[C@H](Oc1nc(F)c(Cl)c(N)c1Cl)c1ccccc1 | % | 19.2 |
| C[C@@H](Oc1ncc(Br)c(N)c1Br)C(=O)O | % | 11.5 |
| C[C@@H](Oc1nc(F)c(Cl)c(N)c1Cl)C(=O)O | % | 25.9 |

###

Test system: Echinochloa oryzoides
test_name: Post-emergence foliage spray, pot culture, fresh weight inhibition (Tables 1-48, 51-98, 101-148; 24 days)
Type: in vivo
study_conditions: B 30 g a.i./ha
measurement_kind: Control effect (%) of B applied alone in corresponding dose

| molecule | measurement_target | result |
| --- | --- | --- |
| CCCCOC(=O)[C@@H](C)Oc1ccc(Oc2ccc(C(F)(F)F)cn2)cc1 | Echinochloa oryzoides | 71.5% |
| COC(=O)[C@@H](C)Oc1ccc(Oc2cnc3cc(Cl)ccc3n2)cc1 | Echinochloa oryzoides | 63.3% |
| COC(=O)[C@@H](C)Oc1ccc(Oc2ncc(C(F)(F)F)cc2Cl)cc1 | Echinochloa oryzoides | 66.9% |
| CS(=O)(=O)c1ccc(C(=O)C2C(=O)CCCC2=O)c(Cl)c1COCC1CCCO1 (stereo not shown) | Echinochloa oryzoides | 46.1% |
